Reference source: patent US11679107B2

# System: Panc 05.04 cells (SF3b K700E mutant)
# assay procedure: Cell proliferation and viability, CellTiter-Glo, 72 hours
# Type: cell-based
# settings: Panc 05.04, 72 h, read-out: CTGlo-ATS GMean GI50 (nM) 72 h PANC0504.1, 72 h; PANC0504.1; geometric mean
Below is a list of entries, each paired with its recorded GI50 value.
Please give a number only; it is taken to be in nM.

Below are worked cases with known answers.
[2H]C([2H])([2H])N1CCN(C(=O)O[C@H]2/C=C/C(C)C(/C(C)=C/c3cc(F)cc(N4CCOCC4)c3)OC(=O)CC(O)CC[C@@H]2C)CC1 (stereo in doubt) [Compound 220]	4.36
C/C(=C\c1cccc(COC(=O)N2CCCC2CO)c1)[C@H]1OC(=O)C[C@H](O)CC[C@H](C)[C@@H](OC(=O)N2CCN(C)CC2)/C=C/[C@@H]1C (stereo in doubt) [Compound 259]	31.5

Next, consider the following molecule.
[ask] Which GI50 is reported with Panc 05.04 cells (SF3b K700E mutant) for this entry: C/C(=C\c1cccc(N(C)C)c1)[C@H]1OC(=O)C[C@H](O)CC[C@H](C)[C@@H](OC(=O)N2CCN(C)CC2)/C=C/[C@@H]1C [Compound 265] ?
[reply] 36.7

---

# System: Panc 05.04 cells (SF3b K700E mutant)
# assay procedure: Cell proliferation and viability, CellTiter-Glo, 72 hours
# Format: cell-based
# settings: Panc 05.04, 72 h, read-out: CTGlo-ATS GMean GI50 (nM) 72 h PANC0504.1, PANC0504.1 cells, 72 h; geometric mean
Below is a list of entries, each paired with its recorded GI50 value.
Please give a number only; it is taken to be in nM.

Below are worked cases with known answers.
C/C(=C\c1ccc2nccn2c1)[C@H]1OC(=O)C[C@H](O)CC[C@H](C)[C@@H](OC(=O)N2CCN(C)CC2)/C=C/[C@@H]1C	86.3
C/C(=C\c1cc(F)cc(F)c1)[C@H]1OC(=O)C[C@H](O)CC[C@H](C)[C@@H](OC(=O)N2CCN(C)CC2)/C=C/[C@@H]1C	42.9
C/C(=C\c1cccc(N(C)C2COC2)c1)[C@H]1OC(=O)C[C@H](O)CC[C@H](C)[C@@H](OC(=O)N2CCN(C)CC2)/C=C/[C@@H]1C	23.6
COCCN1CCN(c2cc(F)cc(/C=C(\C)[C@H]3OC(=O)C[C@H](O)CC[C@H](C)[C@@H](OC(=O)N4CCN(C)CC4)/C=C/[C@@H]3C)c2)CC1=O	5.85
C/C(=C\c1cc(F)cc(N2CC[C@@H](O)C2)c1)[C@H]1OC(=O)C[C@H](O)CC[C@H](C)[C@@H](OC(=O)N2CCN(C)CC2)/C=C/[C@@H]1C	14

Next, consider the following molecule.
[ask] Requested read-out: GI50. Entry: C/C(=C\c1cc(F)cc(N2CCOCC2)c1)[C@H]1OC(=O)C[C@H](O)CC[C@H](C)[C@@H](OC(=O)N2CCN(C3CCC3)CC2)/C=C/[C@@H]1C
[reply] 19

---

# test target: SF3b complexes (Homo sapiens, UniProt O75533+Q7RTV0)
# Construct: endogenous in cells; host or cells: Nuclear extracts; A HeLa S3 extract preparation is described for the in vitro splicing assay
# assay procedure: Scintillation proximity assay (SPA) with [3H]-labelled pladienolide probe
# Type: binding
# settings: SF3B1 (WT); geometric mean; read-out: SPA-ATS GMean IC50 (nM) SF3B1 (WT)
Just a reminder that ties go to 0 (no): only IC50 strictly below 2 nM counts as 1 (yes).

Past entries and their recorded results:
C/C(=C\c1cc(F)cc(N2CCCNC2=O)c1)[C@H]1OC(=O)C[C@H](O)CC[C@H](C)[C@@H](OC(=O)N2CCN(C)CC2)/C=C/[C@@H]1C	0 (no)
COc1ccc(S(=O)(=O)N2CCN(c3cc(F)cc(/C=C(\C)[C@H]4OC(=O)C[C@H](O)CC[C@H](C)[C@@H](OC(=O)N5CCN(C)CC5)/C=C/[C@@H]4C)c3)CC2)cc1	0 (no)
C/C(=C\c1cc(F)c2cn(C3CCOCC3)nc2c1)[C@H]1OC(=O)C[C@H](O)CC[C@H](C)[C@@H](OC(=O)N2CCN(C)CC2)/C=C/[C@@H]1C	0 (no)
C/C(=C\c1cc(F)cc(N2CCC[C@@H]2C)c1)[C@H]1OC(=O)C[C@H](O)CC[C@H](C)[C@@H](OC(=O)N2CCN(C)CC2)/C=C/[C@@H]1C	0 (no)

Next compound, please.
[ask] Dear colleague, could you confirm whether IC50 of C/C(=C\c1cc(F)cc(N2CCCN(CC3CC3)C2=O)c1)[C@H]1OC(=O)C[C@H](O)CC[C@H](C)[C@@H](OC(=O)N2CCN(C)CC2)/C=C/[C@@H]1C falls below 2 nM? Thanks.
[reply] 1 (yes)

---

Below is a list of entries, each paired with its recorded IC50 value.
# test target: SF3b complexes (Homo sapiens, UniProt O75533+Q7RTV0)
# Construct: endogenous in cells; host or cells: Nuclear extracts; A HeLa S3 extract preparation is described for the in vitro splicing assay
# assay procedure: Scintillation proximity assay (SPA) with [3H]-labelled pladienolide probe
# Type: binding
# settings: SF3B1 (WT); geometric mean; read-out: SPA-ATS GMean IC50 (nM) SF3B1 (WT)
Please give a number only; it is taken to be in nM.

Below are worked cases with known answers.
COCC(=O)N[C@H]1CCN(c2cc(F)cc(/C=C(\C)[C@H]3OC(=O)CC(O)CCC(C)[C@@H](OC(=O)N4CCN(C)CC4)/C=C/[C@@H]3C)c2)C1 (stereo in doubt)	2.79
C/C(=C\c1cc(F)cc(N2CC[C@H](N(C)C)C2)c1)[C@H]1OC(=O)C[C@H](O)CC[C@H](C)[C@@H](OC(=O)N2CCN(C)CC2)/C=C/[C@@H]1C	10.7
C/C(=C\c1cc(F)cc(N2CCC(=O)C2)c1)[C@H]1OC(=O)C[C@H](O)CC[C@H](C)[C@@H](OC(=O)N2CCN(C)CC2)/C=C/[C@@H]1C	4.78
C/C(=C\c1cc(F)cc(N2CCN(CCO)CC2)c1)[C@H]1OC(=O)C[C@H](O)CC[C@H](C)[C@@H](OC(=O)N2CCOCC2)/C=C/[C@@H]1C	14.1
C/C(=C\c1cc(F)cc(N2CCN(CCO)CC2)c1)[C@H]1OC(=O)C[C@H](O)CC[C@H](C)[C@@H](OC(=O)N(C)C2CCN(C)CC2)/C=C/[C@@H]1C	4.29

[ask] Which IC50 is reported with SF3b complexes (Homo sapiens, UniProt O75533+Q7RTV0) for this entry: C/C(=C\c1cc(F)c2nnn(Cc3ccc(Cl)cc3)c2c1)[C@H]1OC(=O)C[C@H](O)CC[C@H](C)[C@@H](OC(=O)N2CCN(C)CC2)/C=C/[C@@H]1C ?
[reply] 69.4

[ask] Entry to check: C/C(=C\c1cc(S(=O)(=O)N2CCC(O)CC2)ccc1F)[C@H]1OC(=O)C[C@H](O)CC[C@H](C)[C@@H](OC(=O)N2CCN(C)CC2)/C=C/[C@@H]1C
[reply] 6.04

[ask] Entry to check: C/C(=C\c1cc(F)cc(N2CCN(C(=O)CCO)CC2)c1)[C@H]1OC(=O)C[C@H](O)CC[C@H](C)[C@@H](OC(=O)N2CCN(C)CC2)/C=C/[C@@H]1C
[reply] 2.21

[ask] Entry to check: C/C(=C\C1=CCCN(C(=O)OC(C)(C)C)C1)[C@H]1OC(=O)C[C@H](O)CC[C@H](C)[C@@H](OC(=O)N2CCN(C)CC2)/C=C/[C@@H]1C
[reply] 7.96

[ask] Entry to check: C/C(=C\c1cc(F)cc(N2CCC[C@H]2C)c1)[C@H]1OC(=O)C[C@H](O)CC[C@H](C)[C@@H](OC(=O)N2CCN(C)CC2)/C=C/[C@@H]1C
[reply] 8.26

---

# Test system: Panc 05.04 cells (SF3b K700E mutant)
# assay procedure: Cell proliferation and viability, CellTiter-Glo, 72 hours
# Format: cell-based
# settings: Panc 05.04, read-out: CTGlo-ATS GMean GI50 (nM) 72 h PANC0504.1; 72 h; PANC0504.1; geometric mean
Below is a list of entries, each paired with its recorded GI50 value.
Please give a number only; it is taken to be in nM.

C/C(=C\C1=CCCN(C(=O)OC(C)(C)C)C1)[C@H]1OC(=O)C[C@H](O)CC[C@H](C)[C@@H](OC(=O)N2CCN(C)CC2)/C=C/[C@@H]1C [Compound 219]	24.6
C/C(=C\c1cccc(COC(=O)N2CCC3(COC3)C2)c1)[C@H]1OC(=O)C[C@H](O)CC[C@H](C)[C@@H](OC(=O)N2CCN(C)CC2)/C=C/[C@@H]1C [Compound 255]	65.8

Next, consider the following compound.
[ask] Requested read-out: GI50. Entry: C/C(=C\c1cccc(S(=O)(=O)NC(C)(C)CO)c1)[C@H]1OC(=O)C[C@H](O)CC[C@H](C)[C@@H](OC(=O)N2CCN(C)CC2)/C=C/[C@@H]1C [Compound 201]
[reply] 40.9
